A collection of compounds and their measured IC50
system.tested: GnRH-R (membranes of human prostate cancer cells) (Homo sapiens)
Construct: human prostate cancer cells were obtained from a patient at the time of initial surgical treatment; from tissue; host or cells: human prostate cancer specimen from a patient at surgery; membrane homogenates
Sequence (P30968 whole entry): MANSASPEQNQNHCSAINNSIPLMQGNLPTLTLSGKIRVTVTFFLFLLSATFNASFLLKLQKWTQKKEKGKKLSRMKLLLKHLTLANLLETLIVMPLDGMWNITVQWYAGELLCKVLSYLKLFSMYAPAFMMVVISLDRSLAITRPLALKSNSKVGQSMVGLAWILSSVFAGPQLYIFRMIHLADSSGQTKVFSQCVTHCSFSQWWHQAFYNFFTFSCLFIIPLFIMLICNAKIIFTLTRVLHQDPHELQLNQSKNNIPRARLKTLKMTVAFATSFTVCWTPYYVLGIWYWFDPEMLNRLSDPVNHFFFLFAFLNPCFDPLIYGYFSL
experimental.protocol: Radioligand binding (ligand competition) assay, displacement of [125I]-[6D-Trp]-GnRH-I, human prostate cancer membranes
reported.conditions: membranes of human prostate cancer cells; read-out: IC50 Values, inhibition of [125I]-[6D-Trp]-GnRH-I binding, Human Prostate Cancer
Text: The binding potency of the GnRH analogs and the GnRH-PpIX conjugates to human pituitary and human prostate cancer cells, that express GnRH-R in high concentration, was investigated by ligand competition assay. Tissue samples derived by autopsy from normal human pituitary (anterior lobe) and human prostate cancer cells were obtained from a patient at the time of initial surgical treatment. […] Supernatants were aspirated and the pellet was counted in a gamma counter. […]
Square brackets hold non-standard residues; d marks the D form. Peptide text beside a SMILES is read from it. * marks the point of attachment. X1 = C=CC1=C(C)c2cc3[nH]c(cc4nc(cc5[nH]c(cc1n2)c(C)c5CCC(=O)O)C(CCC(=O)*)=C4C)c(C)c3C=C; pGlu = O=C1CC[C@@H](C(=O)O)N1; Butyryl = CCCC(=O)*
Give the value, in units of nM, as a plain number.

[[record]]
compound = "CCCC(=O)NCCCC[C@H](NC(=O)[C@H](Cc1c[nH]c2ccccc12)NC(=O)[C@H](Cc1c[nH]cn1)NC(=O)[C@@H]1CCC(=O)N1)C(=O)N[C@@H](Cc1c[nH]cn1)C(=O)N[C@H](CCCCN)C(=O)N[C@@H](Cc1c[nH]c2ccccc12)C(=O)N[C@@H](Cc1ccc(O)cc1)C(=O)N1CCC[C@H]1C(=O)NCC(N)=O [compound 3, GnRH-II[^4Lys(Bu), ^6D-Lys]] ([pGlu]HWK(Butyryl)H[dK]WYPG-NH2)"
readout_label = "IC50"
assay_result = 4.65

[[record]]
compound = "CCCC(=O)NCCCC[C@H](NC(=O)[C@H](Cc1c[nH]c2ccccc12)NC(=O)[C@H](Cc1c[nH]cn1)NC(=O)[C@@H]1CCC(=O)N1)C(=O)N[C@@H](Cc1ccc(O)cc1)C(=O)N[C@H](CCCCN)C(=O)N[C@@H](CC(C)C)C(=O)N[C@@H](CCCNC(=N)N)C(=O)N1CCC[C@H]1C(=O)NCC(N)=O [compound 2, GnRH-I[^4Lys(Bu), ^6D-Lys]] ([pGlu]HWK(Butyryl)Y[dK]LRPG-NH2)"
readout_label = "IC50"
assay_result = 8.61


Now examine the next entry.
In: In one line, give reported IC50 of the entry C=CC1=C(C)c2cc3[nH]c(cc4nc(cc5[nH]c(cc1n2)c(C)c5CCC(=O)O)C(CCC(=O)NCCCC[C@@H](NC(=O)[C@H](Cc1c[nH]cn1)NC(=O)[C@H](CCCCNC(=O)CCC)NC(=O)[C@H](Cc1c[nH]c2ccccc12)NC(=O)[C@H](Cc1c[nH]cn1)NC(=O)[C@@H]1CCC(=O)N1)C(=O)N[C@@H](Cc1c[nH]c2ccccc12)C(=O)N[C@@H](Cc1ccc(O)cc1)C(=O)N1CCC[C@H]1C(=O)NCC(N)=O)=C4C)c(C)c3C=C [compound 7, GnRH-II[^4Lys(Bu), ^6D-Lys(PpIX)]] ([pGlu]HWK(Butyryl)H[dK](X1)WYPG-NH2) .
Out: 84.5
